reported.endpoint: melting point

CN1N=C(OC(F)(F)C(F)C(F)(F)F)C(C(F)(F)F)C1n1cc(-c2cc(F)c(Cl)c(C(=O)NC3(C#N)CC3)c2)cn1 (stereo not drawn) : 82 to 84 °C
CN1N=C(OC(F)(F)C(F)C(F)(F)F)C(C(F)(F)F)C1n1cc(-c2cc(F)c(Cl)c(C(=O)NC3CC3)c2)cn1 (stereo not drawn) : 114 to 116 °C
Cn1nc(OC(F)(F)C(F)C(F)(F)F)c(C(F)(F)F)c1-n1cc(-c2cc(Cl)c(Cl)c(C(=O)NC3(C#N)CC3)c2)cn1 (stereo not drawn) : 162 to 165 °C
Cn1nc(OC(F)(F)C(F)C(F)(F)F)c(C(F)(F)F)c1-n1cc(-c2cc(Cl)c(Cl)c(C(=O)NC3CC3)c2)cn1 (stereo not drawn) : 67 to 70 °C
Cn1nc(OC(F)(F)C(F)C(F)(F)F)c(C(F)(F)F)c1-n1cc(-c2cc(C(=O)NC3CC3)c(Cl)cc2F)cn1 (stereo not drawn) : 68 to 70 °C

The reported melting point of the compound Cn1nc(OC(F)(F)C(F)C(F)(F)F)c(C(F)(F)F)c1-n1cc(-c2cccc(C(=O)NC3(C#N)CC3)c2F)cn1 (stereo not drawn) was 59 to 61 °C
